Reported Beating below threshold, number of observations/total well numbers values are given for each entry in this list.
- Tested on: hiPSC-CMs (iCell-Cardiomyocytes^2)
- setup conditions: 0.1 µM, 96h
- Method: Cells were seeded according to the instructions of the cell provider, in fibronectin-coated 48-well MEA plates (Axion Cytoview Plates, M768-tMEA-48B) at a density suited to form a monolayer (i.e., 50 K/well) and maintained in culture in a stage incubator (37°C, 5% CO2). […] The potential presence of various arrhythmic events was evaluated and noted during the data analysis. […]

[
  {
    "molecule": "COc1cccc2c1C(=O)c1c(O)c3c(c(O)c1C2=O)C[C@@](O)(C(=O)CO)C[C@@H]3O[C@H]1C[C@H](N)[C@H](O)[C@H](C)O1 [Doxorubicin]",
    "observed result": "0/5"
  }
]

Lab note: need Beating below threshold, number of observations/total well numbers with hiPSC-CMs (iCell-Cardiomyocytes^2) for entry Cc1cn(-c2cc(NC(=O)c3ccc(C)c(Nc4nccc(-c5cccnc5)n4)c3)cc(C(F)(F)F)c2)cn1 [Nilotinib] , please look it up.
0/5

Lab note: need Beating below threshold, number of observations/total well numbers with hiPSC-CMs (iCell-Cardiomyocytes^2) for entry N=C(N)c1ccc(OCCCCCOc2ccc(C(=N)N)cc2)cc1 [Pentamidine] , please look it up.
0/6

Lab note: need Beating below threshold, number of observations/total well numbers with hiPSC-CMs (iCell-Cardiomyocytes^2) for entry COc1cc2c(Nc3ccc(Br)cc3F)ncnc2cc1OCC1CCN(C)CC1 [Vandetanib] , please look it up.
0/5

// provenance: paper PMC10364322
